- MEASURED_TARGET: beta-lactamase class D OXA-48 (Klebsiella pneumoniae)
- Sequence (Q6XEC0 23-265 limits assumed): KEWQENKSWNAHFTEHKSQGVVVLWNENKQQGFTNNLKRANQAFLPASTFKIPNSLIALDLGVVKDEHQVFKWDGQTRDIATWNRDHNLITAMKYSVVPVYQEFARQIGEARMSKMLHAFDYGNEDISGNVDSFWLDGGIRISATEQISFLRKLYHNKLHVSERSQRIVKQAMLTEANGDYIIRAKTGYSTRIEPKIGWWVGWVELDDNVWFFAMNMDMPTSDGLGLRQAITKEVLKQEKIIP
- Format: biochemical
- EXPERIMENTAL_CONTEXT: second drug alone in ultrafiltrated serum at 10 times recommended blood concentration; result expressed as meropenem concentration, theoretically zero; replicate 1
OBSERVED_PROPERTY: [meropenem] (mg/L) Replicates 1
Answers are plain numbers, in mg/L.

I need [meropenem] (mg/L) Replicates 1 for every entry listed below, if you could help.
1. CC(C)(C)NCC(O)c1ccc(O)c(CO)c1 (centres unmarked)
2. O=C1CN=C(c2ccccc2Cl)c2cc([N+](=O)[O-])ccc2N1
3. CCCCc1oc2ccccc2c1C(=O)c1cc(I)c(OCCN(CC)CC)c(I)c1
4. CN1CC[C@]23c4c5ccc(O)c4O[C@H]2[C@@H](O)C=C[C@H]3[C@H]1C5
5. NCCc1ccc(O)c(O)c1

A)
0.16
0.06
-0.16
-0.12
-0.05

These data points were gathered from patent US20220317138A1.
